- System: KM12
- procedure.text: NCI 60 cell panel SRB screen
- Format: cell-based
- experimental.context: Homo sapiens; KM12, single dose 10 μM; read-out: percent cell growth promotion
Here, each record is paired with measured activity at 10 µM data.

| compound | activity at 10 µM / % |
| --- | --- |
| Cc1nnc(N2CCN(c3ccccc3)CC2)c2ccccc12 | 109 |
| Cc1nnc(Nc2ccc(NC(=O)c3ccc(Cl)cc3)cc2)c2ccccc12 | 101 |
| c1ccc(N2CCN(c3nncc4ccccc34)CC2)nc1 | 104 |
| Clc1ccc(Nc2nnc(CNc3ccccc3)c3ccccc23)cc1 [Compound 16a] | 8.93 |
| Cc1nnc(Nc2ccc(NC(=O)Nc3ccc(Cl)cc3)cc2)c2ccccc12 | 14.1 |
| O=C(Nc1ccc(Cl)cc1)Nc1ccc(Nc2nncc3ccccc23)cc1 | 18.9 |
| O=C(Nc1ccc(Nc2nncc3ccccc23)cc1)c1ccc(Cl)cc1 | 103 |
| Cc1nnc(N2CCN(c3ccccc3F)CC2)c2ccccc12 | 113 |
| O=C(Nc1ccc(Cl)cc1)Nc1ccc(Oc2nncc3ccccc23)cc1 | -32.3 |
| Clc1ccc(Nc2nnc(COc3ccccc3)c3ccccc23)cc1 [Compound 17a] | 0.18 |
| Cc1nnc(Oc2ccc(NC(=O)Nc3ccc(Cl)cc3)cc2)c2ccccc12 | 57.7 |
| O=C(Nc1ccccc1)Nc1ccc(Oc2nnc(Cl)c3ccccc23)cc1 [Compound 13a] | 43.6 |
| O=C(Nc1ccc(Cl)cc1)Nc1ccc(Oc2nnc(Cl)c3ccccc23)cc1 [Compound 13b] | 84.5 |
| COc1cccc(NCc2nnc(Nc3ccc(Cl)cc3)c3ccccc23)c1 [Compound 16d] | -24.9 |
| CCOC(=O)N1CCN(c2nncc3ccccc23)CC1 | 104 |
| CCOC(=O)N1CCN(c2nnc(C)c3ccccc23)CC1 | 107 |
| Cc1nnc(N2CCN(c3ccccn3)CC2)c2ccccc12 | 110 |

Hello, the source for this data is paper PMC6691788, in case you need it.
